target: AChE (obtained from electric eel; EeAChE) (Electrophorus electricus, UniProt O42275); construct: AChE (obtained from electric eel); purchased Merck (Prague, Czech Republic); host or cells: electric eel (natural source); assay: biochemical; format: biochemical; conditions: SI = ratio of IC50 for BChE/IC50 for AChE; above 1 = stronger inhibition of AChE
Sequence (O42275 24-633): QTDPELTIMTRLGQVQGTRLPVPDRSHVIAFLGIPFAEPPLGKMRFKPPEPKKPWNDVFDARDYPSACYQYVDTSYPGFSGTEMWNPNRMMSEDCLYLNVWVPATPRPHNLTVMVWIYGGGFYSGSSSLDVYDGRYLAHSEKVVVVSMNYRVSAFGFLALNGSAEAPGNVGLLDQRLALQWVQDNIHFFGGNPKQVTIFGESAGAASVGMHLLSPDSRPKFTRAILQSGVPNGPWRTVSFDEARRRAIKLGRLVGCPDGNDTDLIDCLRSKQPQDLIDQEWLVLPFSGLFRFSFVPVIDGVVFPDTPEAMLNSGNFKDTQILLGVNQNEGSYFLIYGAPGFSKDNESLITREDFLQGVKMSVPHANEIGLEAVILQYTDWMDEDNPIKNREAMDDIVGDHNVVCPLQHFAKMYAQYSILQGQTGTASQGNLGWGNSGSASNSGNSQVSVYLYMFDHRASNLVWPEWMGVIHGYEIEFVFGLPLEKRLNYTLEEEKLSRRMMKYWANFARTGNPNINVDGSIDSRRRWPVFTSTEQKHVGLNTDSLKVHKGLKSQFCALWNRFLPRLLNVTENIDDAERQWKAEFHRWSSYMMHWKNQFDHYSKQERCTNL

smi: CNC(=O)NNC(=O)c1ccccc1C(F)(F)F
assayed-target: AChE (obtained from electric eel; EeAChE) (Electrophorus electricus, UniProt O42275)
inequality-operator: =
Selectivity BChE/AChE: 4.8
//
smi: CCCCCCCCCCCCCNC(=O)NNC(=O)c1cccc([N+](=O)[O-])c1
assayed-target: AChE (obtained from electric eel; EeAChE) (Electrophorus electricus, UniProt O42275)
inequality-operator: =
Selectivity BChE/AChE: 3.8
//
smi: CCCCCCCCCCCCCNC(=O)NNC(=O)c1ccc(S(N)(=O)=O)cc1
assayed-target: AChE (obtained from electric eel; EeAChE) (Electrophorus electricus, UniProt O42275)
inequality-operator: =
Selectivity BChE/AChE: 3.7
//
smi: CCCCCCCCCCCCCNC(=O)NNC(=O)c1cccc(C(F)(F)F)c1
assayed-target: AChE (obtained from electric eel; EeAChE) (Electrophorus electricus, UniProt O42275)
inequality-operator: =
Selectivity BChE/AChE: 4.6
//
smi: CCCCCCCCCCCCCNC(=O)NNC(=O)c1ccccc1C(F)(F)F
assayed-target: AChE (obtained from electric eel; EeAChE) (Electrophorus electricus, UniProt O42275)
inequality-operator: =
Selectivity BChE/AChE: 5.2
//
smi: CCCCCCCCCCCCCNC(=O)NNC(=O)Cc1ccc(C(F)(F)F)cc1
assayed-target: AChE (obtained from electric eel; EeAChE) (Electrophorus electricus, UniProt O42275)
inequality-operator: =
Selectivity BChE/AChE: 3.6
//
smi: CNC(=O)NNC(=O)c1ccc(C(C)(C)C)cc1
assayed-target: AChE (obtained from electric eel; EeAChE) (Electrophorus electricus, UniProt O42275)
inequality-operator: =
Selectivity BChE/AChE: 4.7
//
smi: CCCCCCCCCCCCCNC(=O)NNC(=O)c1ccc(Oc2ccccc2)cc1
assayed-target: AChE (obtained from electric eel; EeAChE) (Electrophorus electricus, UniProt O42275)
inequality-operator: =
Selectivity BChE/AChE: 6.3
//
smi: CCCCCCCCCCCCCNC(=O)NNC(=O)c1ccc(-c2ccccc2)cc1
assayed-target: AChE (obtained from electric eel; EeAChE) (Electrophorus electricus, UniProt O42275)
inequality-operator: =
Selectivity BChE/AChE: 0.6
//
smi: CNC(=O)NNC(=O)c1ccc(F)cc1
assayed-target: AChE (obtained from electric eel; EeAChE) (Electrophorus electricus, UniProt O42275)
inequality-operator: =
Selectivity BChE/AChE: 6.4
//
smi: CNC(=O)NNC(=O)c1ccc(N(C)C)cc1
assayed-target: AChE (obtained from electric eel; EeAChE) (Electrophorus electricus, UniProt O42275)
inequality-operator: =
Selectivity BChE/AChE: 4.3
//
smi: CCCCCCCCCCCCCNC(=O)NNC(=O)c1ccc([N+](=O)[O-])cc1
assayed-target: AChE (obtained from electric eel; EeAChE) (Electrophorus electricus, UniProt O42275)
inequality-operator: =
Selectivity BChE/AChE: 0.4
//
smi: CNC(=O)NNC(=O)c1ccc(Cl)cc1
assayed-target: AChE (obtained from electric eel; EeAChE) (Electrophorus electricus, UniProt O42275)
inequality-operator: =
Selectivity BChE/AChE: 7.2
//
smi: CNC(=O)NNC(=O)c1ccc(O)cc1
assayed-target: AChE (obtained from electric eel; EeAChE) (Electrophorus electricus, UniProt O42275)
inequality-operator: =
Selectivity BChE/AChE: 3.7
//
smi: CCCCCCCCCCCCCNC(=O)NNC(=O)c1ccc(C(C)(C)C)cc1
assayed-target: AChE (obtained from electric eel; EeAChE) (Electrophorus electricus, UniProt O42275)
inequality-operator: =
Selectivity BChE/AChE: 0.8
//
smi: CNC(=O)NNC(=O)c1cccc(C(F)(F)F)c1
assayed-target: AChE (obtained from electric eel; EeAChE) (Electrophorus electricus, UniProt O42275)
inequality-operator: =
Selectivity BChE/AChE: 3.7
//
smi: CCCCCCCCCCCCCNC(=O)NNC(=O)c1ccc(C#N)cc1
assayed-target: AChE (obtained from electric eel; EeAChE) (Electrophorus electricus, UniProt O42275)
inequality-operator: =
Selectivity BChE/AChE: 7.6
//
smi: CCCCCCCCCCCCCNC(=O)NNC(=O)c1ccc(O)cc1
assayed-target: AChE (obtained from electric eel; EeAChE) (Electrophorus electricus, UniProt O42275)
inequality-operator: =
Selectivity BChE/AChE: 2.0
//
smi: CCCCCCCCCCCCCNC(=O)NNC(=O)c1ccccc1[N+](=O)[O-]
assayed-target: AChE (obtained from electric eel; EeAChE) (Electrophorus electricus, UniProt O42275)
inequality-operator: >
Selectivity BChE/AChE: 9.1
//
smi: CCCCCCCCCCCCCNC(=O)NNS(=O)(=O)c1ccc(C(F)(F)F)cc1
assayed-target: AChE (obtained from electric eel; EeAChE) (Electrophorus electricus, UniProt O42275)
inequality-operator: >
Selectivity BChE/AChE: 8.4
//
smi: CNC(=O)NNC(=O)c1ccc(I)cc1
assayed-target: AChE (obtained from electric eel; EeAChE) (Electrophorus electricus, UniProt O42275)
inequality-operator: >
Selectivity BChE/AChE: 6.8
//
smi: CCCCCCCCCCCCCNC(=O)NNC(=O)c1ccc(OC)cc1
assayed-target: AChE (obtained from electric eel; EeAChE) (Electrophorus electricus, UniProt O42275)
inequality-operator: =
Selectivity BChE/AChE: 4.5
//
smi: CCCCCCCCCCCCCNC(=O)NNC(=O)c1ccc(F)cc1
assayed-target: AChE (obtained from electric eel; EeAChE) (Electrophorus electricus, UniProt O42275)
inequality-operator: =
Selectivity BChE/AChE: 8.0
